Catalogue of degree to which MAGL enzymatic activity returned following washout of test compounds values
- study system: MAGL enzyme (Homo sapiens)
- Sequence (Q99685 whole entry): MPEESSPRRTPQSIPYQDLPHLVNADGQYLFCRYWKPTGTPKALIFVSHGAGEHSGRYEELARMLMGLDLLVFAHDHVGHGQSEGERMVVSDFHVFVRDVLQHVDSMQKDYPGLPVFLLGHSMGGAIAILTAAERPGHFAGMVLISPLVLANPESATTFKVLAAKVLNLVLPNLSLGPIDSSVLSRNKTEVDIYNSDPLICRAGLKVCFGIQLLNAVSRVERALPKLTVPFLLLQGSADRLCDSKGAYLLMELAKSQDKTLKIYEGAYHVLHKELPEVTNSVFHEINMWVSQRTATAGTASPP
- method description: MAGL reversible inhibition assay (washout), Example 22
- Type: biochemical
- test conditions: pre-washout compound concentration 1 μM
Answer with a bare number; do not write a unit.

Recorded results for 3 compounds are shown here.
Prompt line: Identify the measured degree to which MAGL enzymatic activity returned following washout of test compounds of Cc1cc(C2CC3(C2)CN(C(=O)c2cc(O)ccc2F)C3)n(-c2ccccc2C)n1 for MAGL enzyme (Homo sapiens).
Response line: 162

Prompt line: Quick check: degree to which MAGL enzymatic activity returned following washout of test compounds on MAGL enzyme (Homo sapiens), item O=C(c1cc(O)ccc1F)N1CC2(CC(n3cc(C4CC4)c(-c4ccccc4F)n3)C2)C1 ?
Response line: 47

Prompt line: Fill in the recorded degree to which MAGL enzymatic activity returned following washout of test compounds for this compound, with MAGL enzyme (Homo sapiens) as test system: Cc1cnn(C2CC3(C2)CN(C(=O)c2cc(O)ccc2F)C3)c1-c1cc(F)ccc1Cl (single isomer, unassigned)
Response line: 155

Next:
Prompt line: Query the reported degree to which MAGL enzymatic activity returned following washout of test compounds for MAGL enzyme (Homo sapiens); item: Cc1cn(C2CC3(C2)CN(C(=O)c2cc(O)ccc2F)C3)nc1-c1cc(F)ccc1Cl (single isomer, unassigned)
Response line: 100

Prompt line: Hello, I am looking for reported degree to which MAGL enzymatic activity returned following washout of test compounds with MAGL enzyme (Homo sapiens) for O=C(c1cc(O)ccc1F)N1CC2(CC(n3cc(C(F)(F)F)c(-c4ccccc4F)n3)C2)C1 (single isomer, unassigned) . Could you help?
Response line: 41

From: patent US20250170101A1
